Source listed as ChEMBL document CHEMBL1136456.

test system: Streptococcus pneumoniae; assay: Antibacterial activity against Streptococcus pneumoniae UC9912 (S.p); format: functional
Items are presented alongside their recorded MIC.
Please state the figure in µg/mL; there is no need to write the unit.

# count of solved cases: 4
Can you look up the measured MIC of `CC(=O)NC[C@H]1CN(c2ccc3c(c2)CCCN(C(=O)CO)C3)C(=O)O1` for me?
1

Please report the recorded MIC for `CC(=O)NC[C@H]1CN(c2ccc3c(c2)CCCN(C(C)=O)C3)C(=O)O1` .
2

Consider the compound `CC(=O)NC[C@H]1CN(c2ccc3c(c2)CCCNC3)C(=O)O1` and give its measured MIC.
8

# MIC lookup, item `CC(=O)NC[C@H]1CN(c2ccc3c(c2)CCCN(C(=O)OCc2ccccc2)C3)C(=O)O1`
8

***
For the compound shown here, `CC(=O)NC[C@H]1CN(c2ccc3c(c2)CCNCC3)C(=O)O1` , give the reported MIC.
8

Returns the measured MIC for the input compound. Input: `CC(=O)NC[C@H]1CN(c2ccc3c(c2)CCCN(C(=O)NC(C)C)C3)C(=O)O1`
8

* * *

test system: Streptococcus pneumoniae; assay: Antibacterial activity against Streptococcus pneumoniae UC9912 (S.p); type: functional
The reader will find reported MIC values listed item by item below.

Answered examples (5):
Can you look up the measured MIC of `CC(=O)NC[C@H]1CN(c2ccc3c(c2)CCN(C(=O)OCc2ccccc2)CC3)C(=O)O1` for me?
< 0.05 µg/mL

Recorded MIC of `CC(=O)NC[C@H]1CN(c2ccc3c(c2)CCCCN3)C(=O)O1` , please.
16 µg/mL

What MIC value was documented for this compound, `CC(=O)NC[C@H]1CN(c2ccc3c(c2)NCCCC3)C(=O)O1` ?
8 µg/mL

Return reported MIC; argument: `COC(=O)N1CCCc2cc(N3C[C@H](CNC(C)=O)OC3=O)ccc2C1`
2 µg/mL

Which value of MIC has been reported for `CC(=O)NC[C@H]1CN(c2ccc3c(c2)CCN(S(C)(=O)=O)CC3)C(=O)O1` in the records?
8 µg/mL

Next:
Any idea what its MIC is? The compound is `CC(=O)NC[C@H]1CN(c2ccc3c(c2)CCCN(C(=O)NCCc2ccccc2)C3)C(=O)O1`
8 µg/mL

So what's the measured MIC for this one? `CC(=O)NC[C@H]1CN(c2ccc3c(c2)CCCCN3C(=O)CO)C(=O)O1`
8 µg/mL

// MIC lookup, key: `CC(=O)NC[C@H]1CN(c2ccc3c(c2)CCCN(C=O)C3)C(=O)O1`
1 µg/mL

# input compound: `COC(=O)N1CCc2ccc(N3C[C@H](CNC(C)=O)OC3=O)cc2CC1` ; wanted: its MIC
1 µg/mL

Consider the compound shown here: `CC(=O)NC[C@H]1CN(c2ccc3c(c2)CCN(C(C)=O)CC3)C(=O)O1` What is its recorded MIC?
1 µg/mL

* * *

test system: Streptococcus pneumoniae; test: Antibacterial activity against Streptococcus pneumoniae UC9912 (S.p); format: functional
Metric: MIC (µg/mL)
Express it in µg/mL; write the number only.

Look up MIC: `CC(=O)NC[C@H]1CN(c2ccc3c(c2)CCN(C(=O)Cc2ccccc2)CC3)C(=O)O1`
1

Which MIC reading was recorded for the molecule `CC(=O)NC[C@H]1CN(c2ccc3c(c2)CCN(C(=O)Oc2ccccc2)CC3)C(=O)O1` ?
2

Look up MIC for this molecule: `CC(=O)NC[C@H]1CN(c2ccc3c(c2)CCCN(C(=O)Nc2ccccc2)C3)C(=O)O1`
1

More entries:
MIC lookup needed for `CC(=O)NC[C@H]1CN(c2ccc3c(c2)CCCN(C(=O)Cc2ccccc2)C3)C(=O)O1` , thanks.
4

MIC lookup needed for `CC(=O)NC[C@H]1CN(c2ccc3c(c2)CCN(C(=O)c2ccccc2)CC3)C(=O)O1` , thanks.
1
